Measured values drawn from patent US20250002435A1 for this set.

molecular target: mCB1R (Mus musculus (Mouse), UniProt P47746); experiment: [3H]CP-55,940 competition displacement binding, crude membranes from mouse brain; conditions: displacement of [3H]CP-55,940; NB = No binding detected at concentrations up to 10 μM; read-out: Ki (nM) mCB1R
Sequence (P47746 whole entry): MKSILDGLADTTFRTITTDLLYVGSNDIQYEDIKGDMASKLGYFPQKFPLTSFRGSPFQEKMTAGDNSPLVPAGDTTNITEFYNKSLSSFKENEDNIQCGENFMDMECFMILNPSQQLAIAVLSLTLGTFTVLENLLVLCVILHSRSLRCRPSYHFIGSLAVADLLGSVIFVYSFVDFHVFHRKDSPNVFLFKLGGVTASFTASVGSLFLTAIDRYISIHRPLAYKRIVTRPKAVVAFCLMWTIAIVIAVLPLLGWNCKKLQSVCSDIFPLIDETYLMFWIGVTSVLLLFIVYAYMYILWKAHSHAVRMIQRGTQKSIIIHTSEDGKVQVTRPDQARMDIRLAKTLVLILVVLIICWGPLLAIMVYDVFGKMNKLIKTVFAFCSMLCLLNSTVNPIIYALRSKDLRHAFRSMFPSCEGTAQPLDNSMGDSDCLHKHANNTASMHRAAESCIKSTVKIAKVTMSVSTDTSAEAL
Ki: recorded values

- compound: "CCCCCCCCc1ccc(OC)c(C2(O)C3(C)CCC(C3)C2(C)C)c1 (single isomer, unassigned)"
  Ki: "> 10000 nM"
- compound: "CCCCCCC(C)(C)c1cc(OC)c([C@]2(O)C3(C)CCC(C3)C2(C)C)c(OC)c1 (stereo partly shown)"
  Ki: "427 nM"
- compound: "CCCCCCC(C)(C)c1cc(OC)c(C2(O)C3(C)CCC(C3)C2(C)C)c(OC)c1F (single isomer, unassigned) [Compound 4c]"
  Ki: "> 10000 nM"

// moving on: another record for Ki
Entry CCCCCCC(C)(C)c1cc(O)c(C2(O)C3(C)CCC(C3)C2(C)C)c(OC)c1 (stereo not shown) [Compound 5c] — recorded Ki = > 10000 nM
